biological target: T1, IL-13 (in-house) (UniProt P35225 35-146, limits assumed); assay: SPR (BIAcore T200), Fab captured on anti-Fab chip, IL-13 as analyte, 25 C, 1:1 model
T1 construct: SPR analyte
T1 sequence (P35225 35-146 limits assumed): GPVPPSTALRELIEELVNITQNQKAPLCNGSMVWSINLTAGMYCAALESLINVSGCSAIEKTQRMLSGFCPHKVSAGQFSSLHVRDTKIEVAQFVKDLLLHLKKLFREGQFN

>  <binder>
Parental anti-IL-13 Fab (lebrikizumab) (Fab, V domains shown, Tested as Fab) VH: EVTLRESGPALVKPTQTLTLTCTVSGFSLSAYSVNWIRQPPGKALEWLAMIWGDGKIVYNSALKSRLTISKDTSKNQVVLTMTNMDPVDTATYYCAGDGYYPYAMDNWGQGSLVTVSS VL: DIVLTQSPDSLSVSLGERATINCRASKSVDSYGNSFMHWYQQKPGQPPKLLIYLASNLESGVPDRFSGSGSGTDFTLTISSLQAEDVAVYYCQQNNEDPRTFGGGTKVEIK

>  <koff (s⁻¹)>
5e-05

$$$$
>  <binder>
anti-IL-13 Fab variant CDR L3 R96A (Fab, V domains shown, Fab; variable domains only; Kabat numbering) VH: EVTLRESGPALVKPTQTLTLTCTVSGFSLSAYSVNWIRQPPGKALEWLAMIWGDGKIVYNSALKSRLTISKDTSKNQVVLTMTNMDPVDTATYYCAGDGYYPYAMDNWGQGSLVTVSS VL: DIVLTQSPDSLSVSLGERATINCRASKSVDSYGNSFMHWYQQKPGQPPKLLIYLASNLESGVPDRFSGSGSGTDFTLTISSLQAEDVAVYYCQQNNEDPATFGGGTKVEIK

>  <koff (s⁻¹)>
0.00044

$$$$
>  <binder>
anti-IL-13 Fab variant CDR L3 D94A (Fab, V domains shown, Fab; variable domains only; Kabat numbering) VH: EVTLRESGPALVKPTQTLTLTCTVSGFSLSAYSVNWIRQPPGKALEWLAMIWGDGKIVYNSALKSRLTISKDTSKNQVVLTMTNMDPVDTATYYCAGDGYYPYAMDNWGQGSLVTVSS VL: DIVLTQSPDSLSVSLGERATINCRASKSVDSYGNSFMHWYQQKPGQPPKLLIYLASNLESGVPDRFSGSGSGTDFTLTISSLQAEDVAVYYCQQNNEAPRTFGGGTKVEIK

>  <koff (s⁻¹)>
3e-05

$$$$

All values here come from patent US20220056134A1.
